Value source: ChEMBL document CHEMBL4811286

- protocol_description: Cytotoxicity against mouse B16-F10 cells assessed as cell viability at 50 ug/ml measured after 24 hrs by MTT assay relative to control
- Type: cell-based
- condition_parameters: at 50 µg/mL, read-out: Activity
observable: viability at 24 h, 50 ug/ml (%)
Write it as a number; the unit % goes unstated.

Please fill in: viability at 24 h, 50 ug/ml reported for COc1ccccc1-c1nnc(SCC(=O)Nc2ccccc2)o1 = 80

Please fill in: viability at 24 h, 50 ug/ml reported for COc1ccccc1-c1nnc(SCC(=O)Nc2ccc(F)cc2)o1 = 80

Please fill in: viability at 24 h, 50 ug/ml reported for COc1ccccc1-c1nnc(SCC(=O)Nc2ccc(I)cc2)o1 = 80
